// reported abundance fitness per item
B1: POU domain, class 4, transcription factor 2, residues 256 to 327; numbered along this chain, Q12837 (parent)
chain: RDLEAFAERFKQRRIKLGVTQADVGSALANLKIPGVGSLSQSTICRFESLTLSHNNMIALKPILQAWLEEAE

# Variants of: B1
# procedure-details: abundance fitness (aPCA) (normalised: wild type 0, dead -1); higher = more abundant; growth selection in yeast, the domain comes from the species named
# condition-notes: Homo sapiens

{"columns": ["monomer-sequence", "abundance fitness"],
 "data": [
  ["RDLEAFAERFKQRRIKLGVTQADVGSALANLKIPGVGSLSQFTICRFESLTLSHNNMIALKPILQAWLEEAE [S42F]", -0.494],
  ["RDLEAFAERFKQRRIKLGVTQADVGSALANLKIPGVGSLSQSTICRFESLTLSHNNMIALKPILPAWLEEAE [Q65P]", -0.528],
  ["RDLEAFAERFKQRRIKLGVTQADVGSALANLKIPGVGSLSRSTICRFESLTLSHNNMIALKPILQAWLEEAE [Q41R]", -0.061],
  ["RDLEAFAERFKQRRIKLGVTQADVGSALANLKIPGVGSLSQSTICRFESLTLSHNNMIALKPILQAWLEFAE [E70F]", -0.543],
  ["RDLEAFAERFKQRRIKLGVTQADVGSALANLKIPGVGSLLQSTICRFESLTLSHNNMIALKPILQAWLEEAE [S40L]", -0.671],
  ["RDLEAFAERFKQRRIKLGVTQADVGSALANLKIPGVGSLSQSTIMRFESLTLSHNNMIALKPILQAWLEEAE [C45M]", -0.251],
  ["RDLEAFAERFKQRRIKLGVTQADVGSALANLKIPGVGSLSQSTICRFESLTLSQNNMIALKPILQAWLEEAE [H54Q]", 0.034],
  ["RDLEAFAERFKQRRIKLGVTQADVGSALANLKPPGVGSLSQSTICRFESLTLSHNNMIALKPILQAWLEEAE [I33P]", -0.357],
  ["RDLEAFAERFKQRRIKLGVTQADVGSALANLGIPGVGSLSQSTICRFESLTLSHNNMIALKPILQAWLEEAE [K32G]", -0.24],
  ["RDLEAFAERFKQRRIKLGVTQADVGSALAHLKIPGVGSLSQSTICRFESLTLSHNNMIALKPILQAWLEEAE [N30H]", -0.087],
  ["RDLEAFAERFKQRRIKLGVTQADVGSALANLKIPGVGSLSQSTICRFESLTLSHNNMIALKPILQDWLEEAE [A66D]", 0.098],
  ["RDLEAFAERFKQRRIKLGVTQADVGSALANLKIPGVGSLSQSTICRFESLTLSHNNMIALYPILQAWLEEAE [K61Y]", -0.237],
  ["RDLEAFAERFKQRRIKLGVTQADVGSALANLKIPGVGSLSQSTICRFESLDLSHNNMIALKPILQAWLEEAE [T51D]", -0.295],
  ["RDLEAFAERFKQRRIKLGVTQADVGSALANLCIPGVGSLSQSTICRFESLTLSHNNMIALKPILQAWLEEAE [K32C]", -0.192],
  ["RDLEAFAERFKQRRIKLGVTQADVGSALANLKIDGVGSLSQSTICRFESLTLSHNNMIALKPILQAWLEEAE [P34D]", -0.221],
  ["RDLEAFAERFKQRRIKLGVTQADVGSALANLKIPGVGSLSQSTICRFESLTLSHNNMIALKPILQAWLESAE [E70S]", -0.11],
  ["RDLEAFAERFKQRRIKLGVTQADVGSALANLKIPGVGSLSQSTICRFESLTLSHNNMIQLKPILQAWLEEAE [A59Q]", 0.062]
]}
